Here, each record is paired with measured relative binding affinity versus folic acid at folic acid receptors data.
# measurement_target: folate receptors (FRs) (Homo sapiens, UniProt P15328)
# Construct: FR-positive KB cells were heavily seeded into 24-well cell culture plates; endogenous in cells; host or cells: KB cells
# Sequence (P15328 25-234): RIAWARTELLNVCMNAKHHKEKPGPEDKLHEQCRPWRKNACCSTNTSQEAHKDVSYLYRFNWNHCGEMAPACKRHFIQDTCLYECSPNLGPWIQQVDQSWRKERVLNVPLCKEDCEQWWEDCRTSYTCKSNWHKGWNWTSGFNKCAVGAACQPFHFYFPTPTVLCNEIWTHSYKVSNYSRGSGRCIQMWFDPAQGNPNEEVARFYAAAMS
# test_description: Relative Affinity Assay (displacement of 3H-folic acid on FR-positive KB cells)
# Assay type: binding
# measurement_parameters: figure legends; folic acid = 1.0; 1 hour at 37° C
parameter_measured: relative binding affinity versus folic acid at folic acid receptors

{"compound": "CC[C@]1(O)C[C@H]2CN(CCc3c([nH]c4ccccc34)[C@@](C(=O)OC)(c3cc4c(cc3OC)N(C)[C@H]3[C@@](O)(C(=O)NNC(=O)OCCSSC[C@H](NC(=O)[C@H](CC(=O)O)NC(=O)[C@H](CC(=O)O)NC(=O)[C@H](CC(=O)O)NC(=O)[C@H](CC(=O)O)NC(=O)CC[C@H](NC(=O)c5ccc(NCc6cnc7nc(N)[nH]c(=O)c7n6)cc5)C(=O)O)C(=O)O)[C@H](O)[C@]5(CC)C=CCN6CC[C@]43[C@@H]65)C2)C1", "quantitative_result": 0.16}
{"compound": "Nc1nc2ncc(CNc3ccc(C(=O)N[C@@H](CCC(=O)O)C(=O)O)cc3)nc2c(=O)[nH]1 [folic acid, reference compound]", "quantitative_result": 1.0}
{"compound": "CC[C@]1(O)C[C@H]2CN(CCc3c([nH]c4ccccc34)[C@@](C(=O)OC)(c3cc4c(cc3OC)N(C)[C@H]3[C@@](O)(C(=O)NNC(=O)OCCSSC[C@H](NC(=O)CC[C@H](NC(=O)c5ccc(NCc6cnc7nc(N)[nH]c(=O)c7n6)cc5)C(=O)O)C(=O)O)[C@H](O)[C@]5(CC)C=CCN6CC[C@]43[C@@H]65)C2)C1", "quantitative_result": 0.13}

###

Reported Relative Folate Receptor Affinity values for the following molecules.
# measurement_target: folate receptors (FRs) (Homo sapiens)
# Construct: FR-positive KB cells were heavily seeded into 24-well cell culture plates; endogenous in cells; host or cells: KB cells
# test_description: Relative Affinity Assay (displacement of 3H-folic acid on FR-positive KB cells)
# Assay type: binding
# measurement_parameters: summary table

{"molecule": "CC[C@]1(O)C[C@H]2CN(CCc3c([nH]c4ccccc34)[C@@](C(=O)OC)(c3cc4c(cc3OC)N(C)[C@H]3[C@@](O)(C(=O)NNC(=O)OCCSSC[C@H](NC(=O)c5ccc(NCc6cnc7nc(N)[nH]c(=O)c7n6)cc5)C(=O)O)[C@H](O)[C@]5(CC)C=CCN6CC[C@]43[C@@H]65)C2)C1 [Example 19]", "Relative Folate Receptor Affinity": 0.05}
{"molecule": "CC[C@]1(O)C[C@H]2CN(CCc3c([nH]c4ccccc34)[C@@](C(=O)OC)(c3cc4c(cc3OC)N(C)[C@H]3[C@@](O)(C(=O)NN=CCOCCOCCN5C(=O)CC(SC[C@H](NC(=O)[C@H](CC(=O)O)NC(=O)[C@H](CC(=O)O)NC(=O)[C@H](CCCNC(=N)N)NC(=O)[C@H](CC(=O)O)NC(=O)CC[C@H](NC(=O)c6ccc(NCc7cnc8nc(N)[nH]c(=O)c8n7)cc6)C(=O)O)C(=O)O)C5=O)[C@H](O)[C@]5(CC)C=CCN6CC[C@]43[C@@H]65)C2)C1 (stereo partly shown) [Example 6]", "Relative Folate Receptor Affinity": 0.31}
{"molecule": "CC[C@]1(O)C[C@H]2CN(CCc3c([nH]c4ccccc34)[C@@](C(=O)OC)(c3cc4c(cc3OC)N(C)[C@H]3[C@@](O)(C(=O)NNC(=O)OCCSSC[C@H](NC(=O)CC[C@H](NC(=O)c5ccc(NCc6cnc7nc(N)[nH]c(=O)c7n6)cc5)C(=O)O)C(=O)O)[C@H](O)[C@]5(CC)C=CCN6CC[C@]43[C@@H]65)C2)C1 [Example 18]", "Relative Folate Receptor Affinity": 0.13}
{"molecule": "CC[C@]1(O)C[C@H]2CN(CCc3c([nH]c4ccccc34)[C@@](C(=O)OC)(c3cc4c(cc3OC)N(C)[C@H]3[C@@](O)(C(=O)NNC(=O)OCCSSC[C@H](NC(=O)[C@H](CC(=O)O)NC(=O)[C@H](CC(=O)O)NC(=O)[C@H](CCCNC(=N)N)NC(=O)[C@H](CC(=O)O)NC(=O)CC[C@H](NC(=O)c5ccc(NCc6cnc7nc(N)[nH]c(=O)c7n6)cc5)C(=O)O)C(=O)O)[C@H](O)[C@]5(CC)C=CCN6CC[C@]43[C@@H]65)C2)C1 [Example 7]", "Relative Folate Receptor Affinity": 0.17}

###

# measurement_target: folate receptors (FRs) (Homo sapiens, UniProt P15328)
# Construct: FR-positive KB cells were heavily seeded into 24-well cell culture plates; endogenous in cells; host or cells: KB cells
# test_description: Relative Affinity Assay (displacement of 3H-folic acid on FR-positive KB cells)
# Assay type: binding
# measurement_parameters: figure legends; folic acid = 1.0; 1 hour at 37° C
parameter_measured: relative binding affinity versus folic acid at folic acid receptors

{"compound": "CC[C@]1(O)C[C@H]2CN(CCc3c([nH]c4ccccc34)[C@@](C(=O)OC)(c3cc4c(cc3OC)N(C)[C@H]3[C@@](O)(C(=O)NN=CCOCCOCCN5C(=O)CC(SC[C@H](NC(=O)[C@H](CC(=O)O)NC(=O)[C@H](CC(=O)O)NC(=O)[C@H](CCCNC(=N)N)NC(=O)[C@H](CC(=O)O)NC(=O)CC[C@H](NC(=O)c6ccc(NCc7cnc8nc(N)[nH]c(=O)c8n7)cc6)C(=O)O)C(=O)O)C5=O)[C@H](O)[C@]5(CC)C=CCN6CC[C@]43[C@@H]65)C2)C1 (stereo partly shown)", "quantitative_result": 0.35}
{"compound": "CC[C@]1(O)C[C@H]2CN(CCc3c([nH]c4ccccc34)[C@@](C(=O)OC)(c3cc4c(cc3OC)N(C)[C@H]3[C@@](O)(C(=O)NNC(=O)OCCSSC[C@H](NC(=O)[C@H](CN)NC(=O)[C@H](CC(=O)O)NC(=O)[C@H](CC(=O)O)NC(=O)[C@H](CC(=O)O)NC(=O)CC[C@H](NC(=O)c5ccc(NCc6cnc7nc(N)[nH]c(=O)c7n6)cc5)C(=O)O)C(=O)O)[C@H](O)[C@]5(CC)C=CCN6CC[C@]43[C@@H]65)C2)C1", "quantitative_result": 0.24}
{"compound": "CC[C@]1(O)C[C@H]2CN(CCc3c([nH]c4ccccc34)[C@@](C(=O)OC)(c3cc4c(cc3OC)N(C)[C@H]3[C@@](O)(C(=O)NCCOC(=O)OCCSSC[C@H](NC(=O)[C@H](CC(=O)O)NC(=O)[C@H](CCCNC(=N)N)NC(=O)[C@H](CC(=O)O)NC(=O)CC[C@H](NC(=O)c5ccc(NCc6cnc7nc(N)[nH]c(=O)c7n6)cc5)C(=O)O)C(=O)O)[C@H](O)[C@]5(CC)C=CCN6CC[C@]43[C@@H]65)C2)C1", "quantitative_result": 0.26}
{"compound": "CC[C@]1(O)C[C@H]2CN(CCc3c([nH]c4ccccc34)[C@@](C(=O)OC)(c3cc4c(cc3OC)N(C)[C@H]3[C@@](O)(C(=O)NNC(=O)OCCSSC[C@H](NC(=O)c5ccc(NCc6cnc7nc(N)[nH]c(=O)c7n6)cc5)C(=O)O)[C@H](O)[C@]5(CC)C=CCN6CC[C@]43[C@@H]65)C2)C1", "quantitative_result": 0.046}
